biological target: Recombinant Human CTLA4-Fc chimera (R&D systems) (human) (UniProt P16410); experiment: ELISA, signal over SA
measurement.name: ELISA S/N(SA)

> print(dat)
                                      binder  measurement.name  reported.result
 1  GGCAHPALPIWSCHFCPF (peptide, not shown: large carriers; small tags and cut ends) [C4m3127-4th-NNS6-26]     ELISA S/N(SA)              7.1
 2  GGCRHPYLPIASPHFCPG (peptide, not shown: large carriers; small tags and cut ends) [C4n#19-5th2w-NNS6-71]     ELISA S/N(SA)             22.9
 3  GGCMHPFLPIISQHFCAF (peptide, not shown: large carriers; small tags and cut ends) [C4m#19-5th4w-NN6-89]     ELISA S/N(SA)              8.3
 4  GGCWHPFLPIFSVHFCGC (peptide, not shown: large carriers; small tags and cut ends) [C4m#19-5th4w-NN6-85]     ELISA S/N(SA)             22.9
 5  GGCFHPWLPIASWHFCGR (peptide, not shown: large carriers; small tags and cut ends) [C4m3127-4th-NNS6-48]     ELISA S/N(SA)             13.5
 6  GGCWHPFLPIVSFHFCPF (peptide, not shown: large carriers; small tags and cut ends) [C4m#19-5th2w-NNS6-84]     ELISA S/N(SA)              6.4
 7  GGCSHPFLPIWSVHFCGQ (peptide, not shown: large carriers; small tags and cut ends) [C4m3127-4th-NNS6-3]     ELISA S/N(SA)             10.9
 8  GGCIHPFLPIWSIHFCSR (peptide, not shown: large carriers; small tags and cut ends) [C4m#19-5th2w-NNS6-37]     ELISA S/N(SA)              9.4
 9  GGCWHPYLPILSLHFCQR (peptide, not shown: large carriers; small tags and cut ends) [C4m#19-5th2w-NNS6-6]     ELISA S/N(SA)             10.3
10  GGCVHPALPIWSFHFCPS (peptide, not shown: large carriers; small tags and cut ends) [C4m#19-5th4w-NN6-46-1]     ELISA S/N(SA)             14.2
11  GGCRHPWLPIVSWHFCSR (peptide, not shown: large carriers; small tags and cut ends) [C4m3127-4th-NNS6-87]     ELISA S/N(SA)             21.4
12  GGCGHPFLPIFSLHFCPR (peptide, not shown: large carriers; small tags and cut ends) [C4m3127-4th-NNS6-80]     ELISA S/N(SA)             12.8
13  GGCRHPYLPIVSRHFCPF (peptide, not shown: large carriers; small tags and cut ends) [C4m#19-5th4w-NN6-4]     ELISA S/N(SA)             31.6
14  GGCMHPFLPIRSWHFCSR (peptide, not shown: large carriers; small tags and cut ends) [C4m#19-5th2w-NNS6-74]     ELISA S/N(SA)                7
15  GGCRHPWLPIWSVHFCGV (peptide, not shown: large carriers; small tags and cut ends) [C4m#19-5th4w-NN6-45]     ELISA S/N(SA)             15.8
